Please provide measured K for the entries that follow.
Test system: Nucleic Acid
Procedure Details: Compound was tested for its binding affinity towards calf thymus DNA
Format: nucleic-acid assay
Run Conditions: Bos taurus
Supply the numeric figure in M⁻¹, leaving out any unit text.

For the compound shown here, CCOc1cc2c3cc(OC)c(OC)cc3c[n+](C)c2c2cc(OC)c(OC)cc12 , give the reported K.
250000

For the compound shown here, CCOc1cc2c3cc(OC)c(OC)cc3c[n+](C)c2c2cc(OC)c(O)cc12.[I-] , give the reported K.
250000

For the compound shown here, CCOc1cc2c3cc(OC)c(OC)cc3c(C)[n+](C)c2c2cc(OC)c(OC)cc12 , give the reported K.
700000

For the compound shown here, CCOc1cc2c3cc(OC)c(OC)cc3c[n+](C)c2c2cc(OC)c(OS(C)(=O)=O)cc12.CS(=O)(=O)[O-] , give the reported K.
250000

For the compound shown here, COc1cc2c(ccc3c4cc(OC)c(OC)cc4c[n+](C)c23)cc1O , give the reported K.
1e+06

* * *

System: Nucleic Acid
Procedure Details: Compound was tested for its binding affinity towards poly(AT)
Format: nucleic-acid assay
# label = condition met if K >= 700000 M⁻¹ else condition not met

I'd appreciate it if you could say whether CCOc1cc2c3cc(OC)c(OC)cc3c[n+](C)c2c2cc(OC)c(OS(C)(=O)=O)cc12.CS(=O)(=O)[O-] has K at least equal to 700000 M⁻¹.
condition not met

I'd appreciate it if you could say whether CCOc1cc2c3cc(OC)c(OC)cc3c[n+](C)c2c2cc(OC)c(O)cc12.[I-] has K at least equal to 700000 M⁻¹.
condition not met

I'd appreciate it if you could say whether CCOc1cc2c3cc(OC)c(OC)cc3c[n+](C)c2c2cc(OC)c(OC)cc12 has K at least equal to 700000 M⁻¹.
condition met

I'd appreciate it if you could say whether COc1cc2c(ccc3c4cc(OC)c(OC)cc4c[n+](C)c23)cc1O [FAGARONINE] has K at least equal to 700000 M⁻¹.
condition met

The measured values listed here are drawn from ChEMBL document CHEMBL1134739.
